experiment: Displacement of radioligand from AChBp by scintillation counting
EXPERIMENTAL_READOUT: pKi
Just the number, please, no unit attached.

Using known records, supply pKi for `C(=C1/CCCN=C1c1cccnc1)/c1cc2ccccc2[nH]1`
8.71

Give me measured pKi, please, for this molecule: `Br.NCCCCC(=O)c1cccnc1`
6.09

In one line, give reported pKi of the entry `C(=C1/CCCN=C1c1cccnc1)/c1coc2ccccc12` .
7

Please indicate pKi recorded for `CC(=O)Nc1ccc(/C=C2\CCCN=C2c2cccnc2)cc1`
7.38

Let me know recorded pKi for `CCN(CC)c1ccc(/C=C2\CCCN=C2c2cccnc2)c(O)c1` , thanks.
7.59

Give the reported pKi for this molecule. `Oc1ccc(/C=C2\CCCN=C2c2cccnc2)cc1`
8.55

Give reported pKi value for `COc1ccc(/C=C2\CCCN=C2c2cccnc2)cc1O`
8.46

Provide pKi value for the following molecule: `C(=C1/CCCN=C1c1cccnc1)/c1ccccc1`
7.13

Consider the molecule `Clc1ccc(/C=C2\CCCN=C2c2cccnc2)cc1` and give its recorded pKi.
6.87

Please report the measured pKi for `COc1cc(/C=C2\CCCN=C2c2cccnc2)ccc1O`
7.09

Give reported pKi value for `O=[N+]([O-])c1cccc(/C=C2\CCCN=C2c2cccnc2)c1`
6.29
